target: Human TRPV3 expressing CHO cells (Homo sapiens); assay: 45Calcium uptake assay: inhibition of 2-APB induced cellular uptake of radioactive calcium; details: 2-APB 500 μM, class symbols
pIC50: −log10 of the molar value.
Would you kindly list pIC50 for each of these compounds?

COc1cccc(/C=C/c2nc3ccccn3c2C(=O)Nc2nc(C(F)(F)F)cs2)c1OCC(C)(C)C :: > 7.00
CC(C)(C)COc1c(/C=C/c2nc3sccn3c2C(=O)Nc2nc(C3CC3)cs2)cccc1OC(F)F :: > 7.00

For each entry beneath this line, provide reported pIC50.
1. COc1cccc(/C=C/c2nc3sccn3c2C(=O)Nc2nc(C(F)(F)F)cs2)c1OCC(C)(C)C
2. COc1cccc(/C=C/c2nc3sccn3c2C(=O)Nc2nc(C(F)(F)F)cs2)c1OCC1CC1
3. CC(C)(C)COc1c(/C=C/c2nc3sccn3c2C(=O)Nc2nc(C(F)(F)F)cs2)cccc1OC(F)F

*A*
["> 7.00", "6.00 to 6.60", "> 7.00"]

----------
target: Human TRPV3 expressing CHO cells (Homo sapiens, UniProt Q8NET8); construct: expressed in transfected cells; host or cells: CHO cells, kept under G-418 selection; assay: 45Calcium uptake assay: inhibition of 2-APB induced cellular uptake of radioactive calcium; format: cell-based; settings: compound at 10.0 μM, 2-APB 500 μM
Sequence (Q8NET8 whole entry): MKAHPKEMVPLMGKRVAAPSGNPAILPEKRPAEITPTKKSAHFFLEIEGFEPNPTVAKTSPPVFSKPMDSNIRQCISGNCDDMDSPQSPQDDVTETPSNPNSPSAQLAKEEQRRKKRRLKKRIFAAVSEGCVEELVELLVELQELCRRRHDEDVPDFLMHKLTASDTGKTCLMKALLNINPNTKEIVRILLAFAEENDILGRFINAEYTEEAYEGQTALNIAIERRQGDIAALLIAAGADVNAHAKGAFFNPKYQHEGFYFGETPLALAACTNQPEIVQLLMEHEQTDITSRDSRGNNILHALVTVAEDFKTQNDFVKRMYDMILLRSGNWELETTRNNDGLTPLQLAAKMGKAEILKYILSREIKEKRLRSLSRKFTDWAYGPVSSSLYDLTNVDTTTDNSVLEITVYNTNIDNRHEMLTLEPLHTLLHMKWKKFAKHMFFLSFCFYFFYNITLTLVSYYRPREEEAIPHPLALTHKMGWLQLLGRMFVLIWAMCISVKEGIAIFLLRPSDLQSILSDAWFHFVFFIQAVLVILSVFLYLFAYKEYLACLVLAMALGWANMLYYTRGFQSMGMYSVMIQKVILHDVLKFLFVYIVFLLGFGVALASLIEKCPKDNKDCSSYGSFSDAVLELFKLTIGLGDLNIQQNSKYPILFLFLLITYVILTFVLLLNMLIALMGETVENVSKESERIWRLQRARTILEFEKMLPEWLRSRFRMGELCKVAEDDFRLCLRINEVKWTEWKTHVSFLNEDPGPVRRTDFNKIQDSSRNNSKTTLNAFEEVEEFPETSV
Give Percentage inhibition at 10.0 μM for every item shown.
Give bare numbers, in %.

CC(C)CCOc1c(/C=C/c2nc3ccccn3c2C(=O)Nc2nc(C(F)(F)F)cs2)cccc1OC(F)F :: 84.65
CC(C)(C)COc1c(/C=C/c2nc3ccccn3c2C(=O)Nc2nc(C3CCC3)cs2)cccc1OC(F)F :: 72.35
COc1cccc(/C=C/c2nc3sccn3c2C(=O)N2CCn3c(nnc3C(F)(F)F)C2)c1OCC(C)(C)C :: 15.45

With those in mind, consider the next compound.
Measured Percentage inhibition at 10.0 μM of COc1cccc(/C=C/c2nc3sccn3c2C(=O)Nc2nc(C(F)(F)F)co2)c1OCC(C)(C)C : 31.51

----------
Record form. Attribute: inhibition at 10 µM. Fill in for each entry.
target: Human TRPV3 expressing CHO cells (Homo sapiens, UniProt Q8NET8); construct: expressed in transfected cells; host or cells: CHO cells, kept under G-418 selection; assay: 45Calcium uptake assay: inhibition of 2-APB induced cellular uptake of radioactive calcium; format: cell-based; details: compound at 10.0 μM, 2-APB 500 μM, read-out: Percentage inhibition at 10.0 μM
Numbers only, in %.

Please review the following examples before continuing.
CC(C)(C)COc1c(/C=C/c2nc3sccn3c2C(=O)Nc2nc(C(C)(C)C)cs2)cccc1OC(F)F :: 89.8
CC(C)(C)COc1c(/C=C/c2nc3ccccn3c2C(=O)Nc2nc(C3CC3)cs2)cccc1OC(F)F :: 58.7
CC(C)(C)COc1c(/C=C/c2nc3sccn3c2C(=O)Nc2nc(C3CCC3)cs2)cccc1OC(F)F :: 86.5
O=C(Nc1nc(C(F)(F)F)cs1)c1c(/C=C/c2cccc(OC(F)F)c2OCC2CCC2)nc2sccn12 :: 97.7
O=C(Nc1nc(C(F)(F)F)cs1)c1c(/C=C/c2cccc(O)c2O)nc2sccn12 :: 4.88

Please go through the list and note inhibition at 10 µM for each molecule.
1. O=C(Nc1nc(C(F)(F)F)cs1)c1c(/C=C/c2cccc(OC(F)F)c2OC2CCCC2)nc2sccn12
2. COc1cccc(/C=C/c2nc3sccn3c2C(=O)Nc2nc(C(F)(F)F)cs2)c1OCC(C)C

*A*
[94.6, 98.8]
